tested on: Puccinia recondita f. sp. tritici; assay: Test C: test suspension sprayed on wheat seedlings, inoculated next day with Puccinia recondita f. sp. tritici (wheat leaf rust), visual disease rating; type: in vivo; conditions: 10 ppm test suspension

>  <compound>
O=C(NCCC(F)(F)F)c1coc(Cc2ccc(-c3noc(C(F)(F)F)n3)cc2)n1 [compound 330]

>  <Test C disease control rating>
100%

$$$$
>  <compound>
COC(=O)c1cnn(Cc2ccc(-c3noc(C(F)(F)F)n3)cc2)c1 [compound 21]

>  <Test C disease control rating>
100%

$$$$
>  <compound>
O=C(NCC(F)(F)F)c1coc(Cc2ccc(-c3noc(C(F)(F)F)n3)cc2)n1 [compound 316]

>  <Test C disease control rating>
100%

$$$$
>  <compound>
CCCOC(=O)c1cnn(Cc2ccc(-c3noc(C(F)(F)F)n3)s2)c1 [compound 198]

>  <Test C disease control rating>
99%

$$$$
>  <compound>
CCOC(=O)c1cc(C)n(Cc2ccc(-c3noc(C(F)(F)F)n3)cc2)n1 [compound 110]

>  <Test C disease control rating>
91%

$$$$
>  <compound>
N#CCCNC(=O)c1coc(Cc2ccc(-c3noc(C(F)(F)F)n3)cc2)n1 [compound 229]

>  <Test C disease control rating>
100%

$$$$
>  <compound>
COCCNC(=O)c1coc(Cc2ccc(-c3noc(C(F)(F)F)n3)cc2)n1 [compound 257]

>  <Test C disease control rating>
100%

$$$$
>  <compound>
FC(F)(F)c1nc(-c2ccc(Cn3ccc4ncccc43)cc2)no1 [Compound 136]

>  <Test C disease control rating>
68%

$$$$
